Kindly state logP^a) for each of the entries shown.
# TEST_PROTOCOL: logP determination by HPLC on a reversed-phase column (C18)
# Format: physicochemical
# RECORDED_CONDITIONS: HPLC-MS method a), reversed-phase column (C18)
One number for each entry.

For orientation, consider the following solved cases.
CN(C(=O)c1cc(-c2cnn(-c3c(Cl)cc(C(F)(C(F)(F)F)C(F)(F)F)cc3C(F)(F)F)c2)cnc1Cl)C1CC1	4.0
Cc1ncc(-c2cnn(-c3c(Cl)cc(C(F)(F)F)cc3Cl)c2)cc1C(=O)N(C)C1CC1	2.8
Cc1ncc(-c2cnn(-c3c(Cl)cc(C(F)(F)F)cc3Cl)c2)cc1C(=O)NC1CC1	2.5

Per the records, this compound ( N#CC1(NC(=O)c2cc(-c3cnn(-c4c(Br)cc(C(F)(C(F)(F)F)C(F)(F)F)cc4C(F)(F)F)c3)ccc2Cl)CC1 ) has logP^a) equal to 4.4

----------
Kindly state log P for each of the entries shown.
# TEST_PROTOCOL: logP determination by HPLC on a reversed-phase column (C18)
# Format: physicochemical
# RECORDED_CONDITIONS: HPLC-MS, reversed-phase column (C18); Table I-T3

CCS(=O)(=O)c1cc(C(F)(F)F)cc(Cl)c1-n1cc(-c2ccc(Cl)c(C(=O)NC3CC3)c2)cn1 [I-T3-178]	3.2
CCc1cc(C(F)(C(F)(F)F)C(F)(F)F)cc(C)c1-n1cc(-c2cnc(Cl)c(C(=O)NC3(C#N)CC3)c2)cn1 [I-T3-110]	4.1
Cc1cc(C(F)(C(F)(F)F)C(F)(F)F)cc(C(F)(F)F)c1-n1cc(-c2ccc(Cl)c(C(=S)NC3CC3)c2)cn1 [I-T3-161]	5.0

Could you now look at the following compound, please?
Per the records, this compound ( N#CC1(NC(=O)c2cc(-c3cnn(-c4c(I)cc(C(F)(C(F)(F)F)C(F)(F)F)cc4OC(F)(F)F)c3)ccc2Cl)CC1 [I-T3-226] ) has log P equal to 4.6

----------
# Tested on: Myzus persicae
# TEST_PROTOCOL: Myzus persicae - spray test
# Format: in vivo
# RECORDED_CONDITIONS: application rate 100 g/ha; Chinese cabbage leaf discs; after 6 days
RECORDED_METRIC: efficacy (%)
Give bare numbers, in %.

For orientation, consider the following solved cases.
Cc1cc(C(F)(C(F)(F)F)C(F)(F)F)cc(C)c1-n1cc(-c2cnc(Cl)c(C(=O)N(C)C3CC3)c2)cn1	100
N#Cc1cc(C(F)(F)F)cc(Cl)c1-n1cc(-c2ccc(Cl)c(C(=O)NC3CC3)c2)cn1	100
CC[S+]([O-])c1cc(C(F)(F)F)cc(Cl)c1-n1cc(-c2ccc(Cl)c(C(=O)NC3CC3)c2)cn1 (stereo not shown)	100
Cc1cc(C(F)(C(F)(F)F)C(F)(F)F)cc(C)c1-c1cc(-c2ccc(Cl)c(C(=O)NC3(C#N)CC3)c2)on1	100

# batch size: 3; output efficacy per entry
1. O=C(NC1CC1)c1cc(-c2cnn(-c3c(Cl)cc(C(F)(C(F)(F)F)C(F)(F)F)cc3OC(F)(F)F)c2)ccc1Cl
2. CCc1cc(C(F)(C(F)(F)F)C(F)(F)F)cc(Cl)c1-n1cc(-c2ccc(Cl)c(C(=O)NC3CC3)c2)cn1
3. O=C(NC1CC1)c1cc(-c2cnn(-c3c(Cl)cc(C(F)(F)F)cc3Cl)c2)cnc1Cl

Outgoing:
1: 100; 2: 90; 3: 90

----------
# TEST_PROTOCOL: logP determination by HPLC on a reversed-phase column (C18)
# Type: physicochemical
# RECORDED_CONDITIONS: HPLC-MS, reversed-phase column (C18); Table I-T3
RECORDED_METRIC: log P
Numbers only.

For orientation, consider the following solved cases.
Cc1ncc(-c2cnn(-c3c(Cl)cc(C(F)(F)F)cc3Cl)c2)cc1C(=O)NC1CC1	2.5
N#CC1(NC(=O)c2cc(-c3cnn(-c4c(Cl)cc(C(F)(F)F)c(F)c4Cl)c3)ccc2Cl)CC1	3.6
CN(C(=O)c1cc(-c2cnn(-c3ccc(C(F)(C(F)(F)F)C(F)(F)F)cc3C(F)(F)F)c2)ccc1Cl)C1CC1	4.9

# batch size: 4; output log P per entry
1. CN(C(=O)c1cc(-c2cnn(-c3c(Cl)cc(C(F)(C(F)(F)F)C(F)(F)F)cc3Cl)c2)cnc1Cl)C1(C#N)CC1
2. CN(C(=O)c1cc(-c2cnn(-c3c(Cl)cc(C(F)(C(F)(F)F)C(F)(F)F)cc3OC(F)F)c2)ccc1Cl)C1CC1
3. NC(=S)C1(NC(=O)c2cc(-c3cnn(-c4c(Cl)cc(C(F)(C(F)(F)F)C(F)(F)F)cc4C(F)(F)F)c3)cnc2Cl)CC1
4. O=C(NC1CC1)c1cc(-c2cnn(-c3ncc(C(F)(C(F)(F)F)C(F)(F)F)cc3Cl)c2)ccc1Cl

Outgoing:
4.3
4.7
3.8
4.1

----------
# TEST_PROTOCOL: logP determination by HPLC on a reversed-phase column (C18)
# Type: physicochemical
# RECORDED_CONDITIONS: HPLC-MS method a)
RECORDED_METRIC: logP^a)
Numbers only.

For orientation, consider the following solved cases.
Cc1cc(C(F)(C(F)(F)F)C(F)(F)F)cc(Cl)c1-n1cc(-c2ccc(Cl)c(C(=O)NC3(C#N)CC3)c2)cn1	4.2
Cc1cc(C(F)(C(F)(F)F)C(F)(F)F)cc(C)c1-n1cc(-c2ccc(Cl)c(C(=O)NCC(F)(F)F)c2)cn1	4.7
N#CC1(NC(=O)c2cc(-c3cnn(-c4c(Cl)cc(C(F)(F)F)cc4Cl)c3)cnc2Cl)CC1	3.1
N#CC1(NC(=O)c2cc(-c3cnn(-c4c(Cl)cc(C(F)(C(F)(F)F)C(F)(F)F)cc4Cl)c3)cnc2Cl)CC1	3.8
Cc1cc(C(F)(C(F)(F)F)C(F)(F)F)cc(Br)c1-n1cc(-c2ccc(Cl)c(C(=O)NC3CC3)c2)cn1	4.5
O=C(NCCC(F)(F)F)c1cc(-c2cnn(-c3ccc(C(F)(C(F)(F)F)C(F)(F)F)cc3Cl)c2)ccc1Cl	4.7
CCc1cc(C(F)(C(F)(F)F)C(F)(F)F)cc(C)c1-n1cc(-c2ccc(Cl)c(C(=O)NC3(C#N)CC3)c2)cn1	4.6
CCc1cc(C(F)(C(F)(F)F)C(F)(F)F)cc(C)c1-n1cc(-c2ccc(Cl)c(C(=O)NCC(F)(F)F)c2)cn1	5.0
Cc1cc(C(F)(C(F)(F)F)C(F)(F)F)cc(C)c1-n1cc(-c2ccc(Cl)c(C(=O)NC3(C(F)(F)F)CC3)c2)cn1	4.6
Cc1cc(C(F)(C(F)(F)F)C(F)(F)F)cc(C)c1-n1cc(-c2ccc(Cl)c(C(=O)NC3(C#N)CC3)c2)cn1	4.2

# batch size: 5; output logP^a) per entry
1. Cc1cc(C(F)(C(F)(F)F)C(F)(F)F)cc(C(F)(F)F)c1-n1cc(-c2ccc(Cl)c(C(=O)NC3(C#N)CC3)c2)cn1
2. CCc1cc(C(F)(C(F)(F)F)C(F)(F)F)ccc1-n1cc(-c2ccc(Cl)c(C(=O)NC3CSC3)c2)cn1
3. CCc1cc(C(F)(C(F)(F)F)C(F)(F)F)cc(Cl)c1-n1cc(-c2ccc(Cl)c(C(=O)NC3(C#N)CC3)c2)cn1
4. O=C(NC1CC1)c1cc(-c2cnn(-c3ccc(C(F)(C(F)(F)F)C(F)(F)F)cc3C(F)(F)F)c2)ccc1Cl
5. Cc1cc(C(F)(C(F)(F)F)C(F)(F)F)cc(C)c1-n1cc(-c2cc(C(=O)NC3(C#N)CC3)c(Cl)cc2F)cn1

Outgoing:
1: 4.3; 2: 4.9; 3: 4.5; 4: 4.3; 5: 4.4

# batch size: 2; output logP^a) per entry
1. N#CC1(NC(=O)c2cc(-c3cnn(-c4ncc(C(F)(F)F)cc4Cl)c3)ccc2Cl)CC1
2. Cc1ncc(-c2cnn(-c3c(Cl)cc(C(F)(C(F)(F)F)C(F)(F)F)cc3Cl)c2)cc1C(=O)NC1CC1

Outgoing:
1: 3.1; 2: 3.3

# batch size: 5; output logP^a) per entry
1. O=C(NC1CSC1)c1cc(-c2cnn(-c3ccc(C(F)(C(F)(F)F)C(F)(F)F)cc3OC(F)(F)F)c2)ccc1Cl
2. O=C(NC1CC1)c1cc(-c2cnn(-c3ccc(C(F)(C(F)(F)F)C(F)(F)F)cc3OC(F)(F)F)c2)ccc1Cl
3. CN(C(=O)c1cc(-c2cnn(-c3c(Cl)cc(C(F)(F)F)cc3Cl)c2)cnc1Cl)C1CC1
4. O=C(NC1CC1)c1c(Cl)ccc(-c2cnn(-c3c(Cl)cc(C(F)(C(F)(F)F)C(F)(F)F)cc3Cl)c2)c1F
5. Cc1cc(C(F)(C(F)(F)F)C(F)(F)F)cc(C(F)(F)F)c1-n1cc(-c2ccc(Cl)c(C(=O)NC3CC3)c2)cn1

Outgoing:
[4.9, 4.7, 3.5, 4.5, 4.4]

# batch size: 6; output logP^a) per entry
1. O=C(NC1CC1)c1cc(-c2cnn(-c3c(Cl)cc(C(F)(C(F)(F)F)C(F)(F)F)cc3C(F)(F)F)c2)ccc1Cl
2. N#CC1(NC(=O)c2cc(-c3cnn(-c4ccc(C(F)(C(F)(F)F)C(F)(F)F)cc4C(F)(F)F)c3)ccc2Cl)CC1
3. Cc1cc(C(F)(C(F)(F)F)C(F)(F)F)cc(C)c1-n1cc(-c2cncc(C(=O)NC3(C#N)CC3)c2)cn1
4. O=C(NCC(F)(F)F)c1cc(-c2cnn(-c3ccc(C(F)(C(F)(F)F)C(F)(F)F)cc3Cl)c2)ccc1Cl
5. Cc1cc(C(F)(C(F)(F)F)C(F)(F)F)cc(C)c1-n1cc(-c2ccc(Cl)c(C(=O)NC3(C#N)CC3)c2F)cn1
6. CCc1cc(C(F)(C(F)(F)F)C(F)(F)F)cc(C)c1-n1cc(-c2cccc(C(=O)NC3CC3)c2F)cn1

Outgoing:
1: 4.4; 2: 4.3; 3: 3.4; 4: 4.7; 5: 4.4; 6: 4.3
